Study System: Histone deacetylase 8 (Homo sapiens, UniProt Q9BY41)
Sequence (Q9BY41 whole entry): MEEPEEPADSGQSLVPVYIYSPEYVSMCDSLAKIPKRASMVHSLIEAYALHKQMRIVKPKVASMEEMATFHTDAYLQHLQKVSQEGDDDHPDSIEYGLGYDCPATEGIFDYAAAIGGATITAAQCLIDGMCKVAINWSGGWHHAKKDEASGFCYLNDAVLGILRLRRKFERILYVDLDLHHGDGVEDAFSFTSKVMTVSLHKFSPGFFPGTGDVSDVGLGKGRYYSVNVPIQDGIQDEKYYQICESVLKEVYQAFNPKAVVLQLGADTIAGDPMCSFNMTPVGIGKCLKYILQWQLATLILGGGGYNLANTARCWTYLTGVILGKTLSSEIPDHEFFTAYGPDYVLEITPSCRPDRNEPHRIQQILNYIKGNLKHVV
Method Description: Inhibition of human recombinant HDAC8 using fluorescent acetylated substrate
pIC50: −log10 of the molar value.
Documented pIC50 across a set of compounds
Measured Attribute: pIC50

compound=[N-]=[N+]=NCc1cc(COc2ccc(NC(=O)CCCCCCC(=O)NO)cc2)cc(N=[N+]=[N-])c1 study_system="Histone deacetylase 8 (Homo sapiens, UniProt Q9BY41)" recorded_value=5.13
compound=[N-]=[N+]=Nc1ccc(-c2csc(NC(=O)CCCCCCC(=O)NO)n2)cc1 study_system="Histone deacetylase 8 (Homo sapiens, UniProt Q9BY41)" recorded_value=5.57

---

Study System: Histone deacetylase 8 (Homo sapiens)
Sequence (Q9BY41 whole entry): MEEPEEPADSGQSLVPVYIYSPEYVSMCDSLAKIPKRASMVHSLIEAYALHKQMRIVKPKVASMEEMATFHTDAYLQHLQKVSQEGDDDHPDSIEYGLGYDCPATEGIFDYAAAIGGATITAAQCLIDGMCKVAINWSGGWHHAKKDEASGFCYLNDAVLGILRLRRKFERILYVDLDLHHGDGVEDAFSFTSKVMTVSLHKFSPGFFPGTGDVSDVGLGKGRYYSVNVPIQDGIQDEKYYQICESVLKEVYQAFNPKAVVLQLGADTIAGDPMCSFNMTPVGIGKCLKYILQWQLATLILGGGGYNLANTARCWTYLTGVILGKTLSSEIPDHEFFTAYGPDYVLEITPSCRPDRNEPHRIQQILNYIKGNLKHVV
Method Description: Inhibition of human recombinant HDAC8 using fluorescent acetylated substrate
Measured Attribute: Ki

compound=[N-]=[N+]=Nc1ccc(-c2csc(NC(=O)CCCCCCC(=O)NO)n2)cc1 recorded_value="2.43 µM"
compound=[N-]=[N+]=NCc1cc(COc2ccc(NC(=O)CCCCCCC(=O)NO)cc2)cc(N=[N+]=[N-])c1 recorded_value="6.59 µM"
